test system: biotinyl-Trp-oxazolone; assay: self-aminoacylation, catalytic enhancement (BWO) (fold over background); higher = more active; k-Seq, kA / k0A0; sequences stand for … in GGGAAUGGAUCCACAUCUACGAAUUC…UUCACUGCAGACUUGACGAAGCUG
Fewer inactive variants are shown than the library holds.
Below, each entry is listed alongside its reported self-aminoacylation.

| Biopolymer Sequence | self-aminoacylation |
| --- | --- |
| AAGUUUGCUAAGUGUCGCAAG [Fam3.1 aminoacylation ribozyme variant] | 0.987 |
| AUUACCCUGGUGAUCGAGUGG [Fam2.1 aminoacylation ribozyme variant] | 1.82 |
| CUACUUCAAAAAAUCUGUCUG [Fam1A.1 aminoacylation ribozyme variant] | 0.797 |
| AUUCACCUAGGGCAUUGGGUG [Fam2.2 aminoacylation ribozyme variant] | 6.12 |
| AUUACACUGGUCAGCGAGUGA [Fam2.1 aminoacylation ribozyme variant] | 5.83 |
| GUUCACCUUGGUCAUCGGGUG [Fam2.2 aminoacylation ribozyme variant] | 5.93 |
| CUACGUCAAACAGUCGGUCUG [Fam1A.1 aminoacylation ribozyme variant] | 1.14 |
| AAAUUUGCUAAUAUUCGCAAG [Fam3.1 aminoacylation ribozyme variant] | 2.01 |
| CUACUUCAAACUAUCGGUUUG [Fam1A.1 aminoacylation ribozyme variant] | 0.697 |
| CCACGCUUCAGGCAAUCGGUC [Fam1B.1 aminoacylation ribozyme variant] | 1.35 |
